# methodNotes: in vitro
# conditionSummary: rat, hepatocytes
In this section we review reported hepatocyte CLint at 1 µM values for a set of compounds.
Hey, just the number and the unit after it is fine.

Guide cases for hepatocyte CLint at 1 µM, answers given:
{"columns": ["lineNotation", "measureName", "measuredResult"],
 "data": [
  ["C[C@@](CCN1Cc2cc(C#CC#C[C@@H]3C[C@H]3CO)cn2C1=O)(C(=O)NO)S(C)(=O)=O", "hepatocyte CLint at 1 µM", "13.4 µL/min/1e6 cells"],
  ["C[C@@](CCN1Cc2cc(C#CC#CC3CN(CCO)C3)cn2C1=O)(C(=O)NO)S(C)(=O)=O", "hepatocyte CLint at 1 µM", "7.3 µL/min/1e6 cells"]
]}

[ask] I am curious: what hepatocyte CLint at 1 µM value has been reported for C[C@@](CCN1Cc2cc(C#CC#C[C@@H]3C[C@H]3[C@H](O)CO)cn2C1=O)(C(=O)NO)S(C)(=O)=O ?
[reply] 10 µL/min/1e6 cells

[ask] I am curious: what hepatocyte CLint at 1 µM value has been reported for C[C@@](CCN1Cc2cc(C#CC#C[C@H]3C[C@@H]3CO)cn2C1=O)(C(=O)NO)S(C)(=O)=O ?
[reply] 19 µL/min/1e6 cells

[ask] I am curious: what hepatocyte CLint at 1 µM value has been reported for C[C@@](CCN1Cc2cc(C#CC#CC3CN(CCF)C3)cn2C1=O)(C(=O)NO)S(C)(=O)=O ?
[reply] 15.4 µL/min/1e6 cells

[ask] I am curious: what hepatocyte CLint at 1 µM value has been reported for C[C@]1(CO)C[C@@H]1C#CC#Cc1cc2n(c1)C(=O)N(CC[C@](C)(C(=O)NO)S(C)(=O)=O)C2 ?
[reply] 55 µL/min/1e6 cells

[ask] I am curious: what hepatocyte CLint at 1 µM value has been reported for C[C@@](CCN1Cc2cc(C#CC#CC3(N)CC3)cn2C1=O)(C(=O)NO)S(C)(=O)=O ?
[reply] 17 µL/min/1e6 cells

[ask] I am curious: what hepatocyte CLint at 1 µM value has been reported for C[C@@](CCN1Cc2cc(C#CC#C[C@H]3C[C@@H]3[C@@H](O)CO)cn2C1=O)(C(=O)NO)S(C)(=O)=O ?
[reply] 10.2 µL/min/1e6 cells

Every entry's value here was drawn from ChEMBL document CHEMBL4321867.
